Subject of test: GST-Nv-NF-kB (Cys allele) (Nematostella vectensis, UniProt E5G601 2-411)
Sequence: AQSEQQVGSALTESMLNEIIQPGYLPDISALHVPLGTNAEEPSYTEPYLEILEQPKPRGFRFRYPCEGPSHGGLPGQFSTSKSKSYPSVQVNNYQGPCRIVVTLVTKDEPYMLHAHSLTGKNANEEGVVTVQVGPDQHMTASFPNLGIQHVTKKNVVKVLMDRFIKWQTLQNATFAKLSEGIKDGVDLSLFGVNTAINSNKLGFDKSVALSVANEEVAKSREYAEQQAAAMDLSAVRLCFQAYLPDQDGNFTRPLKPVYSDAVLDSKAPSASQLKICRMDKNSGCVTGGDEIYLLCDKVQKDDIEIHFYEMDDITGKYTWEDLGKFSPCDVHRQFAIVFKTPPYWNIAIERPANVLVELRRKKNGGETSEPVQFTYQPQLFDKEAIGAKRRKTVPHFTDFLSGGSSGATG
Experiment summary: protein-binding microarray (PBM); PBM: ~300 nM protein, 6 mM HEPES pH 7.8, 80 mM KCl, 0.5 mM EDTA, 0.5 mM EGTA, 6% glycerol, 35 ng/ul poly-dIdC, 1% milk, 1 h, room temperature; Ap Aiptasia and Nv Nematostella (sea anemones) / Co Capsaspora / Aq Amphimedon (sponge) / Dm Drosophila / Hu human; RHD is the Rel homology domain; high values mean tight binding
Test conditions: dsDNA, one strand shown
Reported property: binding signal (z-score)
Give your result in z-score as a bare value.

Answered examples (5):
Sequence record	Unit spec	binding signal
CCGATTAACATCAGGGGAACCCATGATGTTAATCGGGTCTTGATTCGCTTGACGCTGCTG	z-score	5.77
CCGATTAACATCAAGGGGGAATCTGATGTTAATCGGGTCTTGATTCGCTTGACGCTGCTG	z-score	8.91
CCGATTAACATCAGGACATTCCCTGATGTTAATCGGGTCTTGATTCGCTTGACGCTGCTG	z-score	4.82
CCGATTAACATCAACGAAACCCCTGATGTTAATCGGGTCTTGATTCGCTTGACGCTGCTG	z-score	2.45
CCGATTAACATCAGGCAAGTCCCTGATGTTAATCGGGTCTTGATTCGCTTGACGCTGCTG	z-score	3.87

Documented binding signal of CCGATTAACATCACACATCCCCCTGATGTTAATCGGGTCTTGATTCGCTTGACGCTGCTG : 4.4

Documented binding signal of CCGATTAACATCACGGTTATTCCTGATGTTAATCGGGTCTTGATTCGCTTGACGCTGCTG : 1.52

Documented binding signal of CCGATTAACATCAAAACCCCCCCTGATGTTAATCGGGTCTTGATTCGCTTGACGCTGCTG : 6.19

Documented binding signal of CCGATTAACATCAATAATTACCCTGATGTTAATCGGGTCTTGATTCGCTTGACGCTGCTG : 4.26

Hello, the source for this data is paper PMC5700166, in case you need it.
